biological target: human TLR9 (Homo sapiens, UniProt Q9NR96); assay: TLR9 inhibition reporter assay (HEK-Blue SEAP); conditions: HEK-Blue cells overexpressing human TLR9, ODN2006 5 nM, 22 hour incubation
pIC50: −log10 of the molar value. Counter-ions that a name gives are not always drawn.
experimental readout: pIC50

INSERT INTO results (compound, readout_relation, recorded_measurement) VALUES
  ('COc1cc(-c2cc3[nH]c(=O)n([C@H]4CCCN(C)C4)c3cc2C(C)C)cn2ncnc12', '=', 4.58),
  ('COc1cc(-c2ccc3c(c2)[nH]c(=O)n3C2CCN(C3CCC3)CC2)cn2ncnc12', '=', 5.27),
  ('CCC(C)N[C@H]1CC[C@@H](n2c(=O)[nH]c3cc(-c4cc(C)c5ncnn5c4)c(C)cc32)CC1 (stereo partly drawn)', '=', 5.48),
  ('COc1cc(-c2cc3[nH]c(=O)n(C4CCC(N(C)CCC(F)(F)F)CC4)c3cc2C(C)C)cn2ncnc12 (single isomer, unassigned) [Example 248]', '=', 5.01),
  ('Cc1cc(-c2ccc3c(c2)[nH]c(=O)n3C2CCN(CC(=O)N(C)C)CC2)cn2ncnc12', '=', 4.83),
  ('COc1c(C)c(-c2cc3[nH]c(=O)n(C4CCC(N5CC6(COC6)C5)CC4)c3cc2C(C)C)cn2ncnc12 (single isomer, unassigned) [Example 269]', '=', 4.59),
  ('CCc1cc2c(cc1-c1cc(OC)c3ncnn3c1)[nH]c(=O)n2[C@@H]1CCCN(C2CCCOC2)C1 (stereo partly drawn)', '=', 4.68),
  ('COc1cc(-c2cc3[nH]c(=O)n(C4CCNCC4)c3cc2C)cn2ncnc12 [1 E, TFA]', '=', 5.58),
  ('COc1cc(-c2cc3[nH]c(=O)n(C4CCC(N5C6CCC5COC6)CC4)c3cc2C(C)C)cn2ncnc12 (single isomer, unassigned) [Example 253]', '=', 4.95),
  ('Cc1cc2c(cc1-c1cc(C)c3ncnn3c1)[nH]c(=O)n2[C@H]1CC[C@@H](NCc2ncn(C)n2)CC1', '=', 4.68),
  ('COc1cc(-c2cc3[nH]c(=O)n([C@H]4CCCN(CCS(C)(=O)=O)C4)c3cc2C(C)C)cn2ncnc12', '<', 4.30),
  ('CCc1cc2c(cc1-c1cc(OC)c3ncnn3c1)[nH]c(=O)n2[C@@H]1CCCN(C2CCOCC2)C1', '=', 4.57),
  ('Cc1cc2c(cc1-c1cc(C)c3ncnn3c1)[nH]c(=O)n2[C@@H]1CCCN(CC(=O)N(C)C)C1', '=', 4.84),
  ('Cc1cc(-c2cc(C)c3ncnn3c2)cc2[nH]c(=O)n(C3CCN(C)CC3)c12', '=', 5.43),
  ('COc1cc(-c2cc3[nH]c(=O)n([C@@H]4CCCN(C5CCOC5)C4)c3cc2C(C)C)cn2ncnc12 (stereo partly drawn) [Example 217]', '<', 4.30);

====

Below: a set of entries, each annotated with reported log10(IC50).
target: human TLR9 (Homo sapiens, UniProt Q9NR96); assay: TLR9 inhibition reporter assay (HEK-Blue SEAP); conditions: HEK-Blue cells overexpressing human TLR9, ODN2006 5 nM, 22 hour incubation
experimental readout: log10(IC50) (log10 of the value in µM)

INSERT INTO assay_data (compound, recorded_measurement) VALUES
  ('COc1cc(-c2cc3[nH]c(=O)n([C@@H]4CCCN(CC(C)(C)C)C4)c3cc2C)cn2ncnc12', 1.46),
  ('COc1c(C)c(-c2cc3[nH]c(=O)n(C4CCC(N5CC(F)C5)CC4)c3cc2C(C)C)cn2ncnc12 (single isomer, unassigned) [Example 263]', 1.29),
  ('Cc1cc2c(cc1-c1cc(C)c3ncnn3c1)[nH]c(=O)n2[C@@H]1CCCN(C(C)C)C1', 0.76),
  ('COc1cc(-c2ccc3c(c2)[nH]c(=O)n3C2CCN(CC3CCOCC3)CC2)cn2ncnc12', 0.45),
  ('COc1cc(-c2cc3[nH]c(=O)n(C4CCC(N5CCC(F)(F)CC5)CC4)c3cc2C(C)C)cn2ncnc12 (single isomer, unassigned) [Example 246]', 1.19),
  ('Cc1cc(-c2cc(C)c3ncnn3c2)cc2[nH]c(=O)n(C3CCN(CC(=O)N(C)C)CC3)c12', 1.16),
  ('COc1cc(-c2cc3[nH]c(=O)n(C4CCC(N5CC(OC)C5)CC4)c3cc2C(C)C)cn2ncnc12 (centres unmarked) [Example 237]', 1.05),
  ('Cc1c(-c2cc3[nH]c(=O)n(C4CCC(N5CC6(COC6)C5)CC4)c3cc2C(C)C)cn2ncnc2c1C (single isomer, unassigned) [Example 281]', 1.12),
  ('CCCN1CCC[C@H](n2c(=O)[nH]c3cc(-c4cc(OC)c5ncnn5c4)c(C(C)C)cc32)C1', 1.13);

====

target: human TLR7 (Homo sapiens, UniProt Q9NYK1); assay: TLR7 inhibition reporter assay (HEK-Blue SEAP); details: HEK-Blue cells overexpressing human TLR7, gardiquimod 7.5 μM, 22 hour incubation
Sequence (Q9NYK1 27-1049): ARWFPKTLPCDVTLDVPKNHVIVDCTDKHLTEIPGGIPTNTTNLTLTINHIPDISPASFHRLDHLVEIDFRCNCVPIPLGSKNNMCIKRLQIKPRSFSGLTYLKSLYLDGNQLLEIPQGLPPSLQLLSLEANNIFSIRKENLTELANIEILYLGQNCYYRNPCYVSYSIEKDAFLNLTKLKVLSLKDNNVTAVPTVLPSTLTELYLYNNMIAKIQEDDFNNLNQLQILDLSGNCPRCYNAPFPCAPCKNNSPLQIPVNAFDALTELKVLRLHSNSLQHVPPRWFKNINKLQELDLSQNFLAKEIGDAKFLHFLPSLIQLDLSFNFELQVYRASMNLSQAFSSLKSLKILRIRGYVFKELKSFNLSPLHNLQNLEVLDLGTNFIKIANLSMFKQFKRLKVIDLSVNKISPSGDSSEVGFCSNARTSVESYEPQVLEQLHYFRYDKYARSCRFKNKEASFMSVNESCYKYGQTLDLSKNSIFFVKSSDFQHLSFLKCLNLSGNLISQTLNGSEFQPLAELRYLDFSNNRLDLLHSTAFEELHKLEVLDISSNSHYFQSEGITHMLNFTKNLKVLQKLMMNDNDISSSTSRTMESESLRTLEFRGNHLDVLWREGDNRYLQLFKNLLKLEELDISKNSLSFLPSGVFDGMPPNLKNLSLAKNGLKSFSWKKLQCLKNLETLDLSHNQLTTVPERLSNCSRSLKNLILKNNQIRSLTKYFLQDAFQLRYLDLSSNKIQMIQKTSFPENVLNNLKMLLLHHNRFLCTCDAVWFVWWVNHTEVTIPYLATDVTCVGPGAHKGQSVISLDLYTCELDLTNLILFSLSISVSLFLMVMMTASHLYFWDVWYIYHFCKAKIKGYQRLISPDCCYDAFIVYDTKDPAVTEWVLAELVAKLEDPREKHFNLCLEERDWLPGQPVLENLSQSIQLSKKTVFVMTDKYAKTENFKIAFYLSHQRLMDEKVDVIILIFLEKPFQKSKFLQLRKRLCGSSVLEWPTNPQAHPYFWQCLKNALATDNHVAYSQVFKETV
pIC50: −log10 of the molar value.
experimental readout: pIC50

INSERT INTO results (molecule, experimental_readout, recorded_measurement) VALUES
  ('CCN(CC)[C@H]1CC[C@@H](n2c(=O)[nH]c3cc(-c4cc(C)c5ncnn5c4)c(C)cc32)CC1 [Example 20]', 'pIC50', 8.05),
  ('CCC(CC)CN1CCC[C@@H](n2c(=O)[nH]c3cc(-c4cn5ncnc5c(C)c4C)c(C(C)C)cc32)C1 [Example 151]', 'pIC50', 7.96),
  ('COc1cc(-c2cc3[nH]c(=O)n(C4CCN(CC5CCOC5)CC4)c3cc2C(C)C)cn2ncnc12 (stereo not shown) [Example 160]', 'pIC50', 8.06),
  ('COc1cc(-c2cc3[nH]c(=O)n([C@H]4CC[C@@H](NC5CCCCC5)CC4)c3cc2C)cn2ncnc12 [Example 62]', 'pIC50', 7.92);

====

biological target: human TLR7 (Homo sapiens); assay: TLR7 inhibition reporter assay (HEK-Blue SEAP); details: HEK-Blue cells overexpressing human TLR7, gardiquimod 7.5 μM, 22 hour incubation
Below: a set of entries, each annotated with reported IC50.
experimental readout: IC50 (nM)

INSERT INTO measurements (compound, experimental_readout, recorded_measurement) VALUES
  ('COc1c(C)c(-c2cc3[nH]c(=O)n(C4CCC(N5CC(OC)C5)CC4)c3cc2C(C)C)cn2ncnc12 (stereo not drawn) [Example 265]', 'IC50', 7.18),
  ('COc1cc(-c2cc3[nH]c(=O)n([C@H]4CC[C@@H](NC5CCCC5)CC4)c3cc2C)cn2ncnc12 [Example 65]', 'IC50', 10.5),
  ('COc1c(C)c(-c2cc3[nH]c(=O)n(C4CCC(N5CC(F)C5)CC4)c3cc2C(C)C)cn2ncnc12 (single isomer, unassigned) [Example 263]', 'IC50', 7.93),
  ('Cc1cc2c(cc1-c1cc(C)c3ncnn3c1)[nH]c(=O)n2[C@@H]1CCCN(CC2CCOCC2)C1 [Example 41]', 'IC50', 12.3),
  ('COc1cc(-c2cc3[nH]c(=O)n(C4CCC(N5CCNC(=O)C5)CC4)c3cc2C(C)C)cn2ncnc12 (single isomer, unassigned) [Example 233]', 'IC50', 11),
  ('Cc1c(-c2cc3[nH]c(=O)n([C@H]4CC[C@@H](NCC5CCOCC5)CC4)c3cc2C(C)C)cn2ncnc2c1C [Example 200]', 'IC50', 9.02);

====

Biological target: human TLR9 (Homo sapiens, UniProt Q9NR96)
Sequence (Q9NR96 26-1032): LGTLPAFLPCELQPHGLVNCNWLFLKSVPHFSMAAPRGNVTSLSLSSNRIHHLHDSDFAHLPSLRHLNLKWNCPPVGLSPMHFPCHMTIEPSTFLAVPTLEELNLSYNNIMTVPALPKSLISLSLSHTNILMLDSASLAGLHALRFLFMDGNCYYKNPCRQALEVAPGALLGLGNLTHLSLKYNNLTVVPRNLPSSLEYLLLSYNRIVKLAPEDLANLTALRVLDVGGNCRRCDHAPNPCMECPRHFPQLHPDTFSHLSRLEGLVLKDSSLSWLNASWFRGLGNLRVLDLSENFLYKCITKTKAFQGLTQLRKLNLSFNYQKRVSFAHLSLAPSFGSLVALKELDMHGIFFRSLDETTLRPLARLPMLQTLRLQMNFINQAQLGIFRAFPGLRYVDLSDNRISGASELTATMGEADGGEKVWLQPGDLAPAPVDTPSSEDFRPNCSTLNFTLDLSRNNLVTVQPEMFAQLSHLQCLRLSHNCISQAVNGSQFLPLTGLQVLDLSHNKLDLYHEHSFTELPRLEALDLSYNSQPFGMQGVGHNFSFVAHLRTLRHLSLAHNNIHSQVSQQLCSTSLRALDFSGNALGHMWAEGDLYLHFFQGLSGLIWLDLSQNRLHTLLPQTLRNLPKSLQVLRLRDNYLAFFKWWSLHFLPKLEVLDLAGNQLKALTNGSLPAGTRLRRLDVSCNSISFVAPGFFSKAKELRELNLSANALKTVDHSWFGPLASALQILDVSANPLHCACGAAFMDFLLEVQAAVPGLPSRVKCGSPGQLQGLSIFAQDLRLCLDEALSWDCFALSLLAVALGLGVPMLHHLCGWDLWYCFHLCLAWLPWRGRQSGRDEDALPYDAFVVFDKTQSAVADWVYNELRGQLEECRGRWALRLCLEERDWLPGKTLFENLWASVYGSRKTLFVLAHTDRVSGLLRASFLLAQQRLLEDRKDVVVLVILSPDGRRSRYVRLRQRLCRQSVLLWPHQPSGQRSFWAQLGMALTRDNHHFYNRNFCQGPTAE
Experiment: TLR9 inhibition reporter assay (HEK-Blue SEAP)
Details: HEK-Blue cells overexpressing human TLR9, ODN2006 5 nM, 22 hour incubation
experimental readout: IC50

INSERT INTO assay_data (compound, recorded_measurement) VALUES
  ('Cc1c(-c2cc3[nH]c(=O)n([C@@H]4CCCN(C)C4)c3cc2C(C)C)cn2ncnc2c1C', '> 50 µM'),
  ('COc1cc(-c2cc3[nH]c(=O)n(C4CCC(N5CCNC(=O)C5)CC4)c3cc2C(C)C)cn2ncnc12 (single isomer, unassigned) [Example 233]', '> 50 µM'),
  ('COc1cc(-c2cc3[nH]c(=O)n(C4CCC(N5CCC(S(C)(=O)=O)C5)CC4)c3cc2C(C)C)cn2ncnc12 (single isomer, unassigned) [Example 289]', '> 50 µM');
